subject of test: T1, human glucagon receptor (human, UniProt P47871 26-477)
T1 construct: whole, on cells; Used as crude membranes of stably transfected HEK293 cells; also called hGcgR; hGLcgR
run description: SPA, [125I]-Gcg displacement, hGcgR membranes
pKi: −log10 of the molar value. Numbered stars: 1 amine (or outer) side, 2 acyl side, 3 side chain; on linkers, the order of the positions; unused ones are H or OH. Square brackets hold non-standard residues; d marks the D form. Side chains are listed from the residue outwards. Ends that are not written are not given here. * marks the point of attachment. C20 diacid = O=C(O)CCCCCCCCCCCCCCCCCCC(=O)*; γGlu = O=C(O)[C@H](CCC(=O)[*:2])N[*:1]; αMeF = C[C@](N)(Cc1ccccc1)C(=O)O; αMeL = CC(C)C[C@](C)(N)C(=O)O; cTA = not defined here; AEEA = NCCOCCOCC(=O)O; Aib = CC(C)(N)C(=O)O
binders and their reported pKi

binder	pKi
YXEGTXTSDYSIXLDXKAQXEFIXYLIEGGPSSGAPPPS (Aib2; αMeF(2F)6; αMeL13; Orn16; K17((2-[2-(2-Amino-ethoxy)-ethoxy]-acetyl)2-(γ-Glu)-CO-(CH2)16-CO2H); Aib20; D-Glu24; C-terminal NH2) [Example 2]	6.44
Y[Aib][cTA]GT[αMeF]TSDYSI[αMeL]LDEK([AEEA-AEEA-γGlu-C20 diacid])AQ[Aib]AFIEYLIEGGPSSGAPPPS-NH2 (reading uncertain) [Example 120]	7.03
YXEGTXTSDHSILLDKKAQXAFIEYLIEGGPSSGAPPPS (Aib2; αMeF6; K17((2-[2-(2-Amino-ethoxy)-ethoxy]-acetyl)2-(γ-Glu)-CO-(CH2)18-CO2H); Aib20; C-terminal NH2) [Example 128]	6.36
YXEGTFTSDYSIXLDEKAQXAFIEYLLEGGPSSGAPPPS (Aib2; αMeL13; K17((2-[2-(2-Amino-ethoxy)-ethoxy]-acetyl)2-(γ-Glu)-CO-(CH2)18-CO2H); Aib20; C-terminal NH2) [Example 66]	7.03
YXEGTXTSDYSIXLDEKAQXAFIEYLIEGGPSSGAPPPS (Aib2; αMeF6; αMeL13; K17((2-[2-(2-Amino-ethoxy)-ethoxy]-acetyl)2-(γ-Glu)-CO-(CH2)18-CO2H); Aib20; C-terminal NH2) [Example 115]	8.00
YXEGTFTSDYSIXLDSKAQXAFIEYLIEGG (Aib2; αMeL13; K17((2-[2-(2-Amino-ethoxy)-ethoxy]-acetyl)2-(γ-Glu)-CO-(CH2)18-CO2H); Aib20; C-terminal NH2) [Example 64]	6.59
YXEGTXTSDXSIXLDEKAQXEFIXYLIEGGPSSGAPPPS (Aib2; αMeF(2F)6; 4Pal10; αMeL13; K17((2-[2-(2-Amino-ethoxy)-ethoxy]-acetyl)2-(γ-Glu)-CO-(CH2)18-CO2H); Aib20; Aib24; C-terminal NH2) [Example 189]	6.84
YXEGTXTSDYSIXLDKKAQXAXIEYLIEGGPSSGAPPPS (Aib2; αMeF6 (printed aMeF); αMeL13; K17((2-[2-(2-Amino-ethoxy)-ethoxy]-acetyl)2-(γ-Glu)-CO-(CH2)18-CO2H); Aib20; αMeF22; C-terminal NH2) [Example 76]	7.84
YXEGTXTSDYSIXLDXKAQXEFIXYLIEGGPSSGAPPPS (Aib2; αMeF(2F)6; αMeL13; Orn16; K17((2-[2-(2-Amino-ethoxy)-ethoxy]-acetyl)2-(γ-Glu)-CO-(CH2)18-CO2H); Aib20; D-Glu24; C-terminal NH2) [Example 3]	6.62
YXEGTFTSDYSIXLDSKAQXAFIEYLLEGGPSSGAPPPS (Aib2; αMeL13; K17((2-[2-(2-Amino-ethoxy)-ethoxy]-acetyl)2-(γ-Glu)-CO-(CH2)18-CO2H); Aib20; C-terminal NH2) [Example 61]	6.96
YXEGTXTSDXSIXLDKKAQXEFIXYLIEGGPSSGAPPPS (Aib2; αMeF(2F)6; 4Pal10; αMeL13; K17((2-[2-(2-Amino-ethoxy)-ethoxy]-acetyl)2-(γ-Glu)-CO-(CH2)18-CO2H); Aib20; D-Glu24; C-terminal NH2) [Example 203]	6.07
YXEGTXTSDYSIXLDEKAQXAFIEYLIEGG (Aib2; αMeF6; αMeL13; K17((2-[2-(2-Amino-ethoxy)-ethoxy]-acetyl)2-(γ-Glu)-CO-(CH2)18-CO2H); Aib20; C-terminal NH2) [Example 100]	7.36
